From: the supplement of paper PMC6555819

Exercise: for every item that follows, state its recorded PBM binding z-score.
- Test system: THRa:RXRa (NR concentration 90 nM, RXRa partner concentration 90 nM)
- protocol_notes: PBM binding z-score (relative to random genomic background probes); higher = stronger binding; sequences stand for … in GC…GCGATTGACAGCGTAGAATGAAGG
Reply: number alone, nothing else.

# sequence `ATCTCTAGGTAACAAGTTCAGTGACAGAGAGGAC` ; its PBM binding z-score = 1.49

Kindly note the recorded PBM binding z-score for `CCTACTGGGCCATTAGGTCATTGATATCAACGTT` , which is 2.63

Just so you know, measured PBM binding z-score for `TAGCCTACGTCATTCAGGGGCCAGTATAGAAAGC` came out at 0.215

So for `TGAGTGAGGTTAAAGATCAGGGAACGTGGCGTCG` , the logged PBM binding z-score turned out to be 2.43

# PBM binding z-score (sequence: `CAAACTAGGTCAAGGTCAAAGGCGGTTTGTGCCA` ) is 4.38

Reported PBM binding z-score of `TAGCCTACGTCATGCGGGCCAGTATAGTGTCGGC` : -1.7

* * *

Kindly supply the reported PBM binding z-score values for the records listed here.
- Test system: LXRb:RXRa (NR concentration 270 nM, RXRa partner concentration 90 nM)
- protocol_notes: PBM binding z-score (relative to random genomic background probes); higher = stronger binding; sequences stand for … in GC…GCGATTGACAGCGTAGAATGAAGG

Kindly note: LXRb:RXRa (NR concentration 270 nM, RXRa partner concentration 90 nM), `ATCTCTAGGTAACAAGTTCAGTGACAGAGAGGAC` , PBM binding z-score value reported: 0.57

For `GCAGACAGGTGAAACGCAGGTAATTCAGGGTGGC` on LXRb:RXRa (NR concentration 270 nM, RXRa partner concentration 90 nM), measured PBM binding z-score was -0.337

Here `TCATATAGGTAAATGCTAGGTGAAAGCCCGATCT` was tested on LXRb:RXRa (NR concentration 270 nM, RXRa partner concentration 90 nM), and its PBM binding z-score came to 0.675

Entry `CCTACTGGGCCATTCCGAGGTCATTGATCATATG` , tested on LXRb:RXRa (NR concentration 270 nM, RXRa partner concentration 90 nM), has a reported PBM binding z-score of 3.28

Measured PBM binding z-score (LXRb:RXRa (NR concentration 270 nM, RXRa partner concentration 90 nM)), entry `AGAATGAGGTTATTAAGATCAGCGAATTGCGGTC` : 1.11

The sequence `CAAACTAGGTCACACAGGTCAAAGTCCGTGCGTA` , when measured on LXRb:RXRa (NR concentration 270 nM, RXRa partner concentration 90 nM), yielded PBM binding z-score of 4.82

* * *

- System: VDR:RXRa (NR concentration 270 nM, RXRa partner concentration 90 nM)
- protocol_notes: PBM binding z-score (relative to random genomic background probes); higher = stronger binding; sequences stand for … in GC…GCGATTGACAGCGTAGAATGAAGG
observation_type: PBM binding z-score
Just the number, please.

Item: `ATATGTAGGTTAAGGGTCAGTCAGGTTGGTTCGC` | System: VDR:RXRa (NR concentration 270 nM, RXRa partner concentration 90 nM) | PBM binding z-score: 4.37

Reported VDR:RXRa (NR concentration 270 nM, RXRa partner concentration 90 nM) PBM binding z-score for item `CCTCGGAGGACAGCAGGTCAGAGCTGTCCGCTTT` was -0.115

Lab entry: VDR:RXRa (NR concentration 270 nM, RXRa partner concentration 90 nM) assay, sequence `ACTAGTAGTTGAGACGAGGGCAACCGATAGGTTG` , PBM binding z-score = 0.766

Considering `CCTGCCAGGTCATGGTCAGCTAATCTACAGTATG` , its PBM binding z-score with VDR:RXRa (NR concentration 270 nM, RXRa partner concentration 90 nM) was recorded as 2.65

Sample `GCTAGCGGGCCATTTGGGTCACTCAATGACGGGC` , system: VDR:RXRa (NR concentration 270 nM, RXRa partner concentration 90 nM). Its PBM binding z-score is 0.753

Given the sequence `TCTCGGAGGACACGACAGGTCAGAGCTCGACATC` and test system VDR:RXRa (NR concentration 270 nM, RXRa partner concentration 90 nM), the measured PBM binding z-score is 0.875

VDR:RXRa (NR concentration 270 nM, RXRa partner concentration 90 nM) PBM binding z-score of `TTACCATGGTGAAGGTCGTTGATCCCTCTGTAGA` is 0.949

Entry `GGAGCGAGGGCATTCGAGTTGATAGCATGGCGAT` : PBM binding z-score on VDR:RXRa (NR concentration 270 nM, RXRa partner concentration 90 nM) = 3.31

Entry `TAGCCTAGCTCATTGGGCCAGTATAGTACGCATC` , tested on VDR:RXRa (NR concentration 270 nM, RXRa partner concentration 90 nM), has a reported PBM binding z-score of -0.69

Record `ACTAGCAGGCCGAGGGTCACTCAAGATTAGTCCG` has VDR:RXRa (NR concentration 270 nM, RXRa partner concentration 90 nM) PBM binding z-score equal to 1.52

For `CCTACTGGGCCAAAGGTCAATGATTCCAATGCTC` on VDR:RXRa (NR concentration 270 nM, RXRa partner concentration 90 nM), measured PBM binding z-score was 4.04

Readout PBM binding z-score for `GGAACGAGGGCATTCGAGTTTATAGCATGGCGAT` , test system VDR:RXRa (NR concentration 270 nM, RXRa partner concentration 90 nM), was 5.31

Item `AGAACGAGGGCAATGAATTGATAGCACGGGTGGC` was tested on VDR:RXRa (NR concentration 270 nM, RXRa partner concentration 90 nM); the reported PBM binding z-score is 0.305

Field PBM binding z-score (VDR:RXRa (NR concentration 270 nM, RXRa partner concentration 90 nM)), entry `CCTAGTTGGTTAAGGTCACACACGCTATAGGTAC` : 4.4

GET /values?item= `GTACCAAGGCGAATAGGTCGTTGATGAGTAGGCG` &system= VDR:RXRa (NR concentration 270 nM, RXRa partner concentration 90 nM) returns PBM binding z-score: -0.145

PBM binding z-score on VDR:RXRa (NR concentration 270 nM, RXRa partner concentration 90 nM) for `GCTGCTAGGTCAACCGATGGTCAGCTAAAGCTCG` is 1.54

`GCTGCTAGGTCAGGTTGGTCAGCTCACGGGTACG` on VDR:RXRa (NR concentration 270 nM, RXRa partner concentration 90 nM) gives PBM binding z-score = 0.52

Entry `ACCTCTAGGTAAAGATAGTTCAGTGAATGCAAAT` under VDR:RXRa (NR concentration 270 nM, RXRa partner concentration 90 nM) had PBM binding z-score of 0.302

So the reported PBM binding z-score for `CGTGCTAGGTCATGGTCAGCTAATCTACAGTATG` , on VDR:RXRa (NR concentration 270 nM, RXRa partner concentration 90 nM), turned out to be 1.7

The reported VDR:RXRa (NR concentration 270 nM, RXRa partner concentration 90 nM) PBM binding z-score of `CCAGACAGGTGAGAAGGTAACTTAGCCTCGATTA` is 0.0956

Response field PBM binding z-score (VDR:RXRa (NR concentration 270 nM, RXRa partner concentration 90 nM)) for item `TTTCAAAGTTCAAAGGTAACGTAAGTATCCACAC` : 5.06

Considering `AGAACGAGGGCAATGAGTTGATAGCCCGGGTGGC` , its PBM binding z-score with VDR:RXRa (NR concentration 270 nM, RXRa partner concentration 90 nM) was recorded as 4.73

The sequence `CGTCAAAGTTCAAGGTACCGTAACAGAAAGCAGC` , tested on VDR:RXRa (NR concentration 270 nM, RXRa partner concentration 90 nM), showed PBM binding z-score of 3.76

Field PBM binding z-score (system: VDR:RXRa (NR concentration 270 nM, RXRa partner concentration 90 nM)) for entry `TCTAGTTGATCAAAGGTCACACACTCGAAATGCG` = 5.05

Form: item `TTACCAAGGTGAAGGTCATTGATCCCTCTGTAGA` ; test system VDR:RXRa (NR concentration 270 nM, RXRa partner concentration 90 nM); PBM binding z-score: 3.43

Kindly note: VDR:RXRa (NR concentration 270 nM, RXRa partner concentration 90 nM), `TCTTGGAGATCAGCAGGTTAAGAAAGCTGGCCAA` , PBM binding z-score value reported: 0.335
